# study_system: GLP-1R (Homo sapiens)
# test: EC20 GLP-1(9-36) PAM cAMP assay: dose response of compound in the presence of fixed concentration of GLP-1(9-36)
# recorded_conditions: GLP-1R CRE-bla CHO-K1 cells, compound dose response in presence of fixed concentration of GLP-1(9-36)
result_type: EC50

As a guide, the following entries are already answered.
[[record]]
compound = "Cc1cccc(-c2ccc(-c3cnc(-c4ccc(C[C@H](NC(=O)c5ccc(C(C)(C)C)cc5)C(=O)O)cc4)nc3)cc2)c1 [Compound 230]"
obs_value = "800 to 2500 nM"

[[record]]
compound = "CCCCCCCOc1ccc(-c2cnc(-c3ccc(C[C@H](NC(=O)c4ccc(C(C)(C)C)s4)C(=O)N4CCC(C(=O)O)C4)cc3)nc2)cc1 (stereo partly shown) [Compound 344]"
obs_value = "< 800 nM"

[[record]]
compound = "CCCCCCCOc1ccc(-c2cnc(-c3ccc(C[C@H](NC(=O)c4ccc(C(C)C)cc4)C(=O)N[C@@H](CC(N)=O)C(=O)O)cc3)nc2)cc1 [Compound 306]"
obs_value = "< 800 nM"


Please examine the following record next.
Incoming: // query EC50 value for entry CCCCCCCOc1ccc(-c2cnc(-c3ccc(C[C@H](NC(=O)c4cnn(C(C)C)c4)C(=O)NCC(=O)O)cc3)nc2)cc1 [Compound 369]
Outgoing: 800 to 2500 nM

###

# study_system: GLP-1R (Homo sapiens, UniProt P43220)
# Sequence (P43220 24-463): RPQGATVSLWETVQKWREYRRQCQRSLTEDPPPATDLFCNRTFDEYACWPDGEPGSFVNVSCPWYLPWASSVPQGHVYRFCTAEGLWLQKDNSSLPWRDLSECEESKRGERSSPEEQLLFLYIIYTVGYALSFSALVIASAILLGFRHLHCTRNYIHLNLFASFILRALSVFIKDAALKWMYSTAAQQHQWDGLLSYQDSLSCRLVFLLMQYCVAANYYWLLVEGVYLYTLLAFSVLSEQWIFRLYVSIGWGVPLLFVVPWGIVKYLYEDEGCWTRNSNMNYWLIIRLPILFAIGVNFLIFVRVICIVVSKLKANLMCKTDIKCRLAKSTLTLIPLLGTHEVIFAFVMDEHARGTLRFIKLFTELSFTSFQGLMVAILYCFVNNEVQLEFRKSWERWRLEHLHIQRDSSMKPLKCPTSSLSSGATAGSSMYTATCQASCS
# Sequence (P01275 100-127 partner limits assumed): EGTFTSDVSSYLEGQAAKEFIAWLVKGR
# test: EC20 GLP-1(9-36) PAM cAMP assay: dose response of compound in the presence of fixed concentration of GLP-1(9-36)
# recorded_conditions: GLP-1R CRE-bla CHO-K1 cells, compound dose response in presence of fixed concentration of GLP-1(9-36)
result_type: EC50

As a guide, the following entries are already answered.
[[record]]
smiles_code = "CCCCCCCOc1ccc(-c2cnc(-c3ccc(C[C@H](NC(=O)c4ccc(C(C)(C)C)cc4)C(=O)O)cc3)cn2)cc1"
result_type = "EC50"
obs_value = "0.8 to 2.5 µM"

[[record]]
smiles_code = "CCCCCCCOc1ccc(-c2nc(-c3ccc(C[C@H](NC(=O)c4ccc(C(C)(C)C)cc4)C(=O)O)cc3)ns2)cc1"
result_type = "EC50"
obs_value = "0.8 to 2.5 µM"

[[record]]
smiles_code = "CC(C)(C)c1ccc(C(=O)N[C@@H](Cc2ccc(-c3noc(-c4cccc5c4CCNC5)n3)cc2)C(=O)O)cc1"
result_type = "EC50"
obs_value = "2.5 to 5 µM"

[[record]]
smiles_code = "CCCCCCCOc1ccc(-c2cnc(-c3ccc(C[C@H](NC(=O)c4cc(C(C)(C)C)n[nH]4)C(=O)O)cc3)nc2)cc1"
result_type = "EC50"
obs_value = "5 to 10 µM"


Please examine the following record next.
Incoming: // query EC50 value for entry CCCCCCCOc1ccc(-c2cnc(-c3ccc(C[C@@H](NC(=O)c4ccc(C(C)(C)C)s4)C(=O)N[C@@H](CCC(N)=O)C(=O)O)cc3)nc2)cc1
Outgoing: < 0.8 µM

###

Listing of recorded EC50 by entry.
# study_system: GLP-1R (Homo sapiens)
# test: EC20 GLP-1(9-36) PAM cAMP assay: dose response of compound in the presence of fixed concentration of GLP-1(9-36)
# recorded_conditions: GLP-1R CRE-bla CHO-K1 cells, compound dose response in presence of fixed concentration of GLP-1(9-36)

As a guide, the following entries are already answered.
[[record]]
compound = "CCCCCCCOc1ccc(N2CCCN(c3ccc(C[C@H](NC(=O)c4ccc(C(C)(C)C)cc4)C(=O)O)cc3)CC2)cc1 [Compound 268]"
obs_value = "0.8 to 2.5 µM"

[[record]]
compound = "CCCCCCCOc1ccc(-c2cnc(-c3ccc(C[C@H](NC(=O)c4ccc(CN(C)C)cc4)C(=O)O)cc3)nc2)cc1 [Compound 134]"
obs_value = "0.8 to 2.5 µM"

[[record]]
compound = "CCCCCCCOc1ccc(-c2cnc(-c3ccc(C[C@H](NC(=O)c4ccc(OC(C)C)cc4)C(=O)O)cc3)nc2)cc1 [Compound 97]"
obs_value = "0.8 to 2.5 µM"

[[record]]
compound = "CC(C)(C)c1ccc(-c2cnc(-c3ccc(C[C@H](NC(=O)c4ccc(OC(F)(F)F)cc4)C(=O)O)cc3)nc2)cc1 [Compound 173]"
obs_value = "0.8 to 2.5 µM"

[[record]]
compound = "CCCCCCCOc1ccc(-c2cnc(-c3ccc(C[C@H](NC(=O)c4ccc(S(C)(=O)=O)cc4)C(=O)O)cc3)nc2)cc1 [Compound 99]"
obs_value = "0.8 to 2.5 µM"


Incoming: // query EC50 value for entry CCCCCCCOc1ccc(-c2cnc(-c3ccc(C[C@H](NC(=O)c4ccc(C(C)(C)C)s4)C(=O)NCC(=O)O)cc3)nc2)cc1 [Compound 319]
Outgoing: < 0.8 µM

Incoming: // query EC50 value for entry CCCc1ccc(-c2cnc(-c3ccc(C[C@H](NC(=O)c4ccc(C(C)(C)C)cc4)C(=O)O)cc3)nc2)cc1 [Compound 228]
Outgoing: 0.8 to 2.5 µM

Incoming: // query EC50 value for entry CCCCCCCOc1ccc(-c2cnc(-c3ccc(C[C@H](NC(=O)c4ccc(S(C)(=O)=O)cc4Cl)C(=O)O)cc3)nc2)cc1 [Compound 123]
Outgoing: 0.8 to 2.5 µM

Incoming: // query EC50 value for entry CCCCCCCOc1cccc(-c2cnc(-c3ccc(C[C@H](NC(=O)c4ccc(C(C)(C)C)cc4)C(=O)O)cc3)nc2)c1 [Compound 219]
Outgoing: 0.8 to 2.5 µM

Provenance of the data: patent US8778923B2
